Quick note: these are Ki numbers for system: Adenosine receptor A2a (Rattus norvegicus, UniProt P30543)
Sequence (P30543 whole entry): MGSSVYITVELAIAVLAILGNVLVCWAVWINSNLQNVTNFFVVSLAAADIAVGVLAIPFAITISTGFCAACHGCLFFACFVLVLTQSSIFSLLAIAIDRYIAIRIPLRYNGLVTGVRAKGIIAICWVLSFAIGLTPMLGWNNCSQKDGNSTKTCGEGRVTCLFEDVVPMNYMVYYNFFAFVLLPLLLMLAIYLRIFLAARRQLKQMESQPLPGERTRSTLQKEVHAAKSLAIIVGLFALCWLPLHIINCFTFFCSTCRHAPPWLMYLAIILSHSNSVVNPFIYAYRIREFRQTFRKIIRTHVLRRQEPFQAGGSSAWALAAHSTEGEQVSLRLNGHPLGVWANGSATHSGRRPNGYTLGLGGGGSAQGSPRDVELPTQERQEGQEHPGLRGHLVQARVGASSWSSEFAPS

Ask | Can you look up Ki on Adenosine receptor A2a (Rattus norvegicus, UniProt P30543) for Nc1ncnc2c1ncn2[C@@H]1O[C@H](CO)C[C@H]1O [3'-Deoxyadenosine (cordycepin)] ?
Reply | > 10 µM

Ask | Requested read-out Ki, target or system Adenosine receptor A2a (Rattus norvegicus, UniProt P30543), entry O=c1ccn(C2OC(COP(=O)(O)OP(=O)(O)O)C(O)C2O)c(=O)[nH]1 (stereo not given)
Reply | > 10 µM

Ask | Query for Adenosine receptor A2a (Rattus norvegicus, UniProt P30543): what Ki does the record show for CCNC(=O)[C@H]1O[C@@H](n2cnc3c(=O)[nH]cnc32)[C@H](O)[C@@H]1O ?
Reply | > 10 µM

Ask | Hello, I am looking for reported Ki with Adenosine receptor A2a (Rattus norvegicus, UniProt P30543) for Cc1cn([C@H]2C[C@H](O)[C@@H](CO)O2)c(=O)[nH]c1=O . Could you help?
Reply | > 10 µM

Ask | Query the reported Ki for Adenosine receptor A2a (Rattus norvegicus, UniProt P30543); item: NCC1OC(n2cnc3c(N)ncnc32)C(O)C1O (stereo not given)
Reply | 38.5 µM
